System: 695427-040-R-J1-PDC complex spheroid viability
assay.name: Anticancer human tumor 695427-040-R-J1-PDC patient-derived colon adenocarcinoma cell line growth inhibition [POLQ]
test.parameters: second compound 0.316 µM; first compound 3.16 µM; active compounds read low
measured.quantity: viability, T/C (%)
Number only, in %; omit the unit.

[Q] Observed viability, T/C on 695427-040-R-J1-PDC complex spheroid viability for Nc1ccn(C2OC(CO)C(O)C2(F)F)c(=O)n1 (stereo unspecified) + COC1C(OC(N)=O)C(O)C(Oc2ccc3c(O)c(NC(=O)c4ccc(O)c(CC=C(C)C)c4)c(=O)oc3c2C)OC1(C)C , please.
[A] 63.5

[Q] Now try COc1ccc([C@@H](O)c2cc(-c3ncnc4cc(N5CCOCC5)ccc34)c(F)cc2Cl)nn1 + Cc1cccc(N(C)C(=O)C2C(O)CCN2c2nc(C)cc(C(F)(F)F)c2C#N)c1 .
[A] 78.5

[Q] Now try CC1COCCN1c1cc(-c2ccnn2C)c2ccnc(-c3ccn[nH]3)c2n1 (stereo unspecified) + Nc1ccc(C#CCN(C(=O)Cc2ncc(C(F)(F)F)cc2C(F)(F)F)c2ccc(F)cc2)nn1 .
[A] 65

[Q] Now try CCc1cc2c(N3CCc4c(cc(Cn5ccnc5)cc4-c4cn(C)nc4C(F)(F)F)C3=O)cc(C)nc2c(OC)n1 + Cc1cccc(N(C)C(=O)C2C(O)CCN2c2nc(C)cc(C(F)(F)F)c2C#N)c1 .
[A] 110

[Q] Now try CC(C)n1c(=O)n(C)c2cnc3cc(F)c(-c4ccc(OCCCN5CCCCC5)nc4)cc3c21 + Cc1cccc(N(C)C(=O)C2C(O)CCN2c2nc(C)cc(C(F)(F)F)c2C#N)c1 .
[A] 92.7

[Q] Now try O=C(c1cc(Cc2n[nH]c(=O)c3ccccc23)ccc1F)N1CCN(C(=O)C2CC2)CC1 + Nc1ccc(C#CCN(C(=O)Cc2ncc(C(F)(F)F)cc2C(F)(F)F)c2ccc(F)cc2)nn1 .
[A] 114

[Q] Now try C=CC(=O)N1CCN(c2nc(=O)n(-c3c(C)ccnc3C(C)C)c3nc(-c4c(O)cccc4F)c(F)cc23)C(C)C1 (stereo unspecified) + Nc1ccc(C#CCN(C(=O)Cc2ncc(C(F)(F)F)cc2C(F)(F)F)c2ccc(F)cc2)nn1 .
[A] 120

[Q] Now try C#Cc1c(F)ccc2cc(O)cc(-c3ncc4c(N5CC6CCC(C5)N6)nc(OCC56CCCN5CC(F)C6)nc4c3F)c12 (stereo unspecified) + COC1C(OC(N)=O)C(O)C(Oc2ccc3c(O)c(NC(=O)c4ccc(O)c(CC=C(C)C)c4)c(=O)oc3c2C)OC1(C)C .
[A] 95

[Q] Now try O=C(Nc1ccc(O)c(NS(=O)(=O)c2ccc(F)cc2)c1)c1ccc(-c2ccccc2)cc1 + Cc1cccc(N(C)C(=O)C2C(O)CCN2c2nc(C)cc(C(F)(F)F)c2C#N)c1 .
[A] 111

[Q] Now try CCCS(=O)(=O)Nc1ccc(F)c(C(=O)c2c[nH]c3ncc(-c4ccc(Cl)cc4)cc23)c1F + Nc1ccc(C#CCN(C(=O)Cc2ncc(C(F)(F)F)cc2C(F)(F)F)c2ccc(F)cc2)nn1 .
[A] 106

[Q] Now try O=C(c1cc(Cc2n[nH]c(=O)c3ccccc23)ccc1F)N1CCN(C(=O)C2CC2)CC1 + Cc1cccc(N(C)C(=O)C2C(O)CCN2c2nc(C)cc(C(F)(F)F)c2C#N)c1 .
[A] 98.4

[Q] Now try C=CC(=O)N1CCN(c2nc(=O)n(-c3c(C)ccnc3C(C)C)c3nc(-c4c(O)cccc4F)c(F)cc23)C(C)C1 (stereo unspecified) + COC1C(OC(N)=O)C(O)C(Oc2ccc3c(O)c(NC(=O)c4ccc(O)c(CC=C(C)C)c4)c(=O)oc3c2C)OC1(C)C .
[A] 112

[Q] Now try O=c1[nH]cc(F)c(=O)[nH]1 + Nc1ccc(C#CCN(C(=O)Cc2ncc(C(F)(F)F)cc2C(F)(F)F)c2ccc(F)cc2)nn1 .
[A] 106

[Q] Now try CCCS(=O)(=O)Nc1ccc(F)c(C(=O)c2c[nH]c3ncc(-c4ccc(Cl)cc4)cc23)c1F + COC1C(OC(N)=O)C(O)C(Oc2ccc3c(O)c(NC(=O)c4ccc(O)c(CC=C(C)C)c4)c(=O)oc3c2C)OC1(C)C .
[A] 118

[Q] Now try CNCc1ccc(-c2[nH]c3cc(F)cc4c3c2CCNC4=O)cc1 + COC1C(OC(N)=O)C(O)C(Oc2ccc3c(O)c(NC(=O)c4ccc(O)c(CC=C(C)C)c4)c(=O)oc3c2C)OC1(C)C .
[A] 115

[Q] Now try CNCc1ccc(-c2[nH]c3cc(F)cc4c3c2CCNC4=O)cc1 + Cc1cccc(N(C)C(=O)C2C(O)CCN2c2nc(C)cc(C(F)(F)F)c2C#N)c1 .
[A] 102

[Q] Now try COc1cc2cc(C(=O)CCC(=O)O)sc2cc1OC + Cc1cccc(N(C)C(=O)C2C(O)CCN2c2nc(C)cc(C(F)(F)F)c2C#N)c1 .
[A] 114

[Q] Now try O=C(c1cc(Cc2n[nH]c(=O)c3ccccc23)ccc1F)N1CCN(C(=O)C2CC2)CC1 + COC1C(OC(N)=O)C(O)C(Oc2ccc3c(O)c(NC(=O)c4ccc(O)c(CC=C(C)C)c4)c(=O)oc3c2C)OC1(C)C .
[A] 114

[Q] Now try COc1cc(C2c3cc4c(cc3C(OC3OC5COC(C)OC5C(O)C3O)C3COC(=O)C23)OCO4)cc(OC)c1O (stereo unspecified) + COC1C(OC(N)=O)C(O)C(Oc2ccc3c(O)c(NC(=O)c4ccc(O)c(CC=C(C)C)c4)c(=O)oc3c2C)OC1(C)C .
[A] 95.3

[Q] Now try CCCS(=O)(=O)Nc1ccc(F)c(C(=O)c2c[nH]c3ncc(-c4ccc(Cl)cc4)cc23)c1F + Cc1cccc(N(C)C(=O)C2C(O)CCN2c2nc(C)cc(C(F)(F)F)c2C#N)c1 .
[A] 123

[Q] Now try CC1COCCN1c1cc(C2(O)CC3CCC(C2)O3)c2cnn(-c3ccn[nH]3)c2n1 (stereo unspecified) + Nc1ccc(C#CCN(C(=O)Cc2ncc(C(F)(F)F)cc2C(F)(F)F)c2ccc(F)cc2)nn1 .
[A] 70.3

====

Test system: 695427-040-R-J1-PDC complex spheroid viability
assay.name: Anticancer human tumor 695427-040-R-J1-PDC cell line growth inhibition [POLQ];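 also: spheroids exposed to compounds for seven days; 100% = DMSO vehicle control viability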
test.parameters: second compound 3.16 µM; first compound 10 µM; active compounds read low
measured.quantity: viability, T/C (%)
Number only, in %; omit the unit.

[Q] Query (compound): COc1ccc([C@@H](O)c2cc(-c3ncnc4cc(N5CCOCC5)ccc34)c(F)cc2Cl)nn1 + Nc1ccc(C#CCN(C(=O)Cc2ncc(C(F)(F)F)cc2C(F)(F)F)c2ccc(F)cc2)nn1 ; field requested: viability, T/C
[A] 56.2

[Q] Now try CCc1cc2c(N3CCc4c(cc(Cn5ccnc5)cc4-c4cn(C)nc4C(F)(F)F)C3=O)cc(C)nc2c(OC)n1 + Cc1cccc(N(C)C(=O)C2C(O)CCN2c2nc(C)cc(C(F)(F)F)c2C#N)c1 .
[A] 108

[Q] Now try CC1COCCN1c1cc(C2(S(C)(=N)=O)CC2)nc(-c2ccnc3[nH]ccc23)n1 (stereo not given) + COC1C(OC(N)=O)C(O)C(Oc2ccc3c(O)c(NC(=O)c4ccc(O)c(CC=C(C)C)c4)c(=O)oc3c2C)OC1(C)C .
[A] 85.9

[Q] Now try C#Cc1c(F)ccc2cc(O)cc(-c3ncc4c(N5CC6CCC(C5)N6)nc(OCC56CCCN5CC(F)C6)nc4c3F)c12 (stereo not given) + COC1C(OC(N)=O)C(O)C(Oc2ccc3c(O)c(NC(=O)c4ccc(O)c(CC=C(C)C)c4)c(=O)oc3c2C)OC1(C)C .
[A] 90.7

[Q] Now try CCCS(=O)(=O)Nc1ccc(F)c(C(=O)c2c[nH]c3ncc(-c4ccc(Cl)cc4)cc23)c1F + Cc1cccc(N(C)C(=O)C2C(O)CCN2c2nc(C)cc(C(F)(F)F)c2C#N)c1 .
[A] 104

====

Would you kindly list viability, T/C for each of these compounds?
Test system: 695427-040-R-J1-PDC complex spheroid viability
assay.name: Anticancer human tumor 695427-040-R-J1-PDC cell line growth inhibition [POLQ];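 also: spheroids exposed to compounds for seven days; 100% = DMSO vehicle control viability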
test.parameters: second compound 10 µM; first compound 1 µM; active compounds read low
Number only, in %; omit the unit.

[Q] Query (compound): COc1cc(C2c3cc4c(cc3C(OC3OC5COC(C)OC5C(O)C3O)C3COC(=O)C23)OCO4)cc(OC)c1O (stereo not given) + Cc1cccc(N(C)C(=O)C2C(O)CCN2c2nc(C)cc(C(F)(F)F)c2C#N)c1 ; field requested: viability, T/C
[A] 86.8

[Q] Now try COc1cccc(OCCCN)c1-c1cc(Nc2cnc(C#N)cn2)n[nH]1 + COC1C(OC(N)=O)C(O)C(Oc2ccc3c(O)c(NC(=O)c4ccc(O)c(CC=C(C)C)c4)c(=O)oc3c2C)OC1(C)C .
[A] 39.8

[Q] Now try CC(C)n1c(=O)n(C)c2cnc3cc(F)c(-c4ccc(OCCCN5CCCCC5)nc4)cc3c21 + COC1C(OC(N)=O)C(O)C(Oc2ccc3c(O)c(NC(=O)c4ccc(O)c(CC=C(C)C)c4)c(=O)oc3c2C)OC1(C)C .
[A] 113

[Q] Now try C=CCn1c(=O)c2cnc(Nc3ccc(N4CCN(C)CC4)cc3)nc2n1-c1cccc(C(C)(C)O)n1 + Nc1ccc(C#CCN(C(=O)Cc2ncc(C(F)(F)F)cc2C(F)(F)F)c2ccc(F)cc2)nn1 .
[A] 65.3

[Q] Now try CC1COCCN1c1cc(C2(O)CC3CCC(C2)O3)c2cnn(-c3ccn[nH]3)c2n1 (stereo not given) + Cc1cccc(N(C)C(=O)C2C(O)CCN2c2nc(C)cc(C(F)(F)F)c2C#N)c1 .
[A] 56.1
